MEASUREMENT DESCRIPTION: ACEA_AR_agonist_AUC_viability: ACEA Biosciences xCELLigence Real-Time Cell Analysis on Androgen Receptor Agonism for Viability (AID 2283775)
Records with an inconclusive call do not appear. Activity calls are given as the source filed them. Rule for the calls: active = hit-call score of the fitted dose curve at least 0.9, where 1 is the maximum; inconclusive = response in the unintended direction; inactive = score below 0.9.
Hi! Could you answer with just one of these? 1.0 = active, 0.0 = inactive

Recorded results for 6 molecules are shown here.
MOLECULE	CAT
c1ccc2c(c1)ccc1cc3c(ccc4ccccc43)cc12	1.0
CCCCCCCOC(=O)CCC	0.0
O=C1C(N(CO)C(=O)NCO)N(CO)C(=O)N1CO (configuration not stated)	0.0
CN(C)c1ccc(C(=N)c2ccc(N(C)C)cc2)cc1	1.0
C=C1C2CCC(C2)C1(C)C (configuration not stated)	0.0
OC1CCCCCCCCCCC1	0.0

Proceed to the following item.
IN: Per the assay record, what outcome was assigned to `Oc1ccc(Cl)cc1Cc1cc(Cl)ccc1O` ?
OUT: 1.0

====

Read-out: Interleukin-8 (IL8), CXCL8 (gene 3576)
MEASUREMENT DESCRIPTION: BSK_SAg_IL8: BioMAP Diversity Plus: SAg Assay for Interleukin-8 (IL8) Biomarker Activity (AID 2283094)
RECORDED CONDITIONS: primary human HUVEC with PBMC; actives raise or lower the signal
The source made the active and inactive calls. How the source made its calls: active means hit-call score of the fitted dose curve at least 0.9, where 1 is the maximum; inactive means score below 0.9.
Hi! Could you answer with just one of these? TRUE for active, FALSE for inactive

COMPOUND	CAT
CCCCCCCCCCCCCCCC[N+](C)(C)CC	TRUE
C#CC1(O)CC[C@H]2[C@@H]3CCC4=CCCC[C@@H]4[C@H]3CC[C@@]21C (some centres not stated)	TRUE
C=CC(=O)OCC(Br)CBr (configuration not stated)	TRUE
CCCCNc1ccc(NCCCC)c2c1C(=O)c1ccccc1C2=O	FALSE
C=C[Si](OC(C)=O)(OC(C)=O)OC(C)=O	FALSE
O=C(Cl)c1cc(C(=O)Cl)cc(C(=O)Cl)c1	TRUE

Proceed to the following item.
IN: Per the assay record, what outcome was assigned to CC1OC1C1CCC2(C)OC2C1 (configuration not stated) ?
OUT: FALSE

====

MEASUREMENT DESCRIPTION: ATG_NF_kB_CIS: Attagene CIS-FACTORIAL HepG2 Assay for human Nuclear Factor Kappa B (NF-kB) (AID 2282991)
RECORDED CONDITIONS: HepG2 Attagene cis-factorial NF-kB reporter mRNA; actives raise or lower the signal
Calls of active or inactive are those of the source. The calls were made as follows: active = hit-call score of the fitted dose curve at least 0.9, where 1 is the maximum; inactive = score below 0.9.
MEASURE: AC50

Some solved entries appear below for comparison.
COMPOUND	AC50
Cn1c(=O)[nH]c2ncn(C)c2c1=O	inactive
C=CC(=O)OCC(Br)CBr (centres undefined)	56.6 µM (active)
Cc1ccc2oc(=O)ccc2c1	inactive
C=C(C)[C@@H]1CCC2=CCC[C@@H](C)[C@]2(C)C1	inactive

IN: For `C1=CCCC1` , write its AC50.
OUT: inactive

IN: For `Nc1ccc(Cl)cc1Cl` , write its AC50.
OUT: inactive

IN: For `Cn1c([N+](=O)[O-])cnc1COC(N)=O` , write its AC50.
OUT: inactive

IN: For `O=C(Nc1cccc(C(F)(F)F)c1)c1cc(Br)cc(Br)c1O` , write its AC50.
OUT: 169 µM (active)

IN: For `CC(C)c1ccc2cc(C(C)C)ccc2c1` , write its AC50.
OUT: inactive

IN: For `c1ccc(CCCc2ccncc2)cc1` , write its AC50.
OUT: inactive

IN: For `O=P(O)(O)Oc1ccccc1` , write its AC50.
OUT: inactive

IN: For `CCCCCCCCCCC=CC#N` , write its AC50.
OUT: inactive

IN: For O=C(O)CC(C(=O)O)C(CC(=O)O)C(=O)O (centres undefined) , write its AC50.
OUT: inactive

IN: For `CCCCOCCOC(=O)COc1nc(Cl)c(Cl)cc1Cl` , write its AC50.
OUT: inactive

IN: For `Cc1cc(O)c(Cl)c(C)c1Cl` , write its AC50.
OUT: inactive

IN: For `[Cl][Nd]([Cl])[Cl]` , write its AC50.
OUT: inactive

IN: For `COc1ccc(C(Cl)=C(c2ccc(OC)cc2)c2ccc(OC)cc2)cc1` , write its AC50.
OUT: inactive

IN: For `CCCCCCCCCCOC(C)=O` , write its AC50.
OUT: inactive

IN: For `O=C(O)c1cc2ccccc2nc1C(=O)O` , write its AC50.
OUT: inactive
